method: amyloid nucleation score (Sup35N fusion, yeast selection) (log enrichment); library NNK2; higher = more nucleation; inactive = no reads after selection;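 also: zero at mode of non-aggregating sequences after 7 days selection at 30°C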
# binarize amyloid nucleation score: threshold 0.4 inclusive, high side YES, low side NO

sequence.entry | assigned.category
TEIKSCKDNTHVHMHSLIRA | NO
YEVGHPYFDDNCRICSFWWK | YES
STVYIVCHGVILRVRMGPWL | YES
FISMLAISDIRHALDWHTSV | YES
CVICHYHLCLRQCIWSG | YES
FFTHTWLRRLKTLCVSFVPK | NO
EPGRRSYSWFCITRVFVMR | NO
QSVYFILNNFKWFPGSTGM | YES

* * *

method: amyloid nucleation score (Sup35N fusion, yeast selection) (log enrichment); library NNK1; higher = more nucleation; inactive = no reads after selection
# binarize amyloid nucleation score: threshold 0.3 inclusive, high side condition met, low side condition not met

sequence.entry | assigned.category
HSHHGSSV | condition met
RINLVDLMWMRHWRMGNI | condition met
LNGRYLDVLHQVIHQNVREP | condition met
RWESKRRRRGRYGFWSVSVR | condition not met
AVCVPVSKDGPVKGKFINKY | condition met
SFTGVDHSQLNDFSATNNAS | condition met
LYIYTKFRFVMYVSWCVSDS | condition not met
PTRCQVWLGGTLHVRVVDLS | condition not met
LGQHRKPSYKHSAKHKLFVD | condition met

* * *

method: amyloid nucleation score (Sup35N fusion, yeast selection) (log enrichment); library NNK2; higher = more nucleation; inactive = no reads after selection

substance | amyloid nucleation score
TLMWESYMWS | -0.897
YRCYTSGFLFFHGSCLNCKS | 0.227
SIFFARLVVEKSMIQLG | 0.21
VFRISLRSSLYML | 4.13
ICKFFSIGVH | 1.14
NRYTLDVVNFSNNYSISSNR | 1.76
HAYYHLILDVLFPDGLWL | -0.938
GSRGMVFQMFT | 0.94
VLVLDR | 3.46
LSFRGDSR | 0.243
DKTVIPLCFLHFNRT | -1.35
MMNTMLHGIVVMNFSWVASW | 4.26
WFSRFSFCRKHYLTVNNWGL | -0.566
YLTISIAGVVLNLFVIACIV | 0.757
NMWLCNGSGRHRFWLR | 0.269
FFLLVCVDGKTRRVD | 0.8
YSYWLSILRNVEL | 4.18
FSLEMTLFWPVFRLCPISSL | 0.606
PKRLKSSYLD | -0.208
SQHSVARIANGLLTSGTMVL | 0.875
MGVLWMFFSF | 0.03
CGFSWCIDQLGTCLCKMVVV | -0.269
LTSGQEGG | 0.047
FWRDLPAQWTRPKAENLVLK | 1.23
QGKNAFAGLGYMSHKRRMWG | 0.686
CLCQIHSRSYPFIL | 0.148
SPGIARDLANRILVTIRWVS | 1.25
NYSDWRVSTEIRSMGRYRPH | 0.069
IRYLYAMVLMDVNDGRYYCK | -1.54
GSWLIEMCEVVSNSMTSMGP | 1.29
YRSSSWVNWIQWH | 3.47
NDSFPRDNFVESWQACEILM | -0.78
TYIQPVARRKHLA | 0.101
ACRLVYNLGRVHLGNHSDIL | -0.225
AVEAYNMSNYLLRYISGSV | -0.109
LECRLC | 0.308
GMCLTGSTSVRTNNSPHVSR | 0.803
CFMDFQWHMRSHG | -0.265
NYSYMENYICQLACKTGEAG | 5.88
YNCLACARVKWKSVCGRMSC | 0.388
VVIRCFYGTERNASWLLVCL | -0.059
VIPYILTCWVYFIDCLWRRK | 0.948
NGEASVGDFNVCLR | -0.478
KQEHSYYNLDDLGHRGSEGA | -0.536
RQVGNHSTYGLFNVQTRLRL | 2.52
ECLTLFRTGRM | 5.31
LDVTHN | 0.6
CDFDIHERMCPYCYIIQVGD | -0.081
DVHHRIIMMLLGGFWYACGY | -0.428
VIFVRYWGVDYHLADLVIN | -0.563
RNHRRSWMPSFRTKLNGGWF | 3.58
AYVRNAIGTMFLLALSHRGD | -0.345
INGSYSGYLERFGGMLRWMV | 0.753
GRLYHGVVTCSGRNGINRGS | 2.92
PGVMHICLCRTHTSRCKCTL | 0.402
SMNVRTKLDWSTTRVDSGLR | 0.662
YMSYNYGTVLEFLELPDSHR | 1.56
WGHLVWGNTRCLGG | 0.016
FCSFSMFRLAS | 0.606
TRVGGWKTSG | 0.945
YDRIGCRASTSLSAYPLATA | 2.58
ILPISVLVDHINWSDPYFIM | 0.035
GCRRISFKSHISGVEGTNGG | 1.2
QLDRCLILPWTFSWCMDCVL | 4.92
LFTKRRW | 0.87
LSRKTYWA | 0.894
KVVCLMVISCCLPLAPHRGW | 3.53
SVFVCTDIFK | 0.702
